We begin with a simple list: items and their reported pEC50.
studySystem: PPAR-delta ligand binding domain fused to GAL4 DNA binding domain (UniProt Q03181)
Sequence (Q03181 1-441): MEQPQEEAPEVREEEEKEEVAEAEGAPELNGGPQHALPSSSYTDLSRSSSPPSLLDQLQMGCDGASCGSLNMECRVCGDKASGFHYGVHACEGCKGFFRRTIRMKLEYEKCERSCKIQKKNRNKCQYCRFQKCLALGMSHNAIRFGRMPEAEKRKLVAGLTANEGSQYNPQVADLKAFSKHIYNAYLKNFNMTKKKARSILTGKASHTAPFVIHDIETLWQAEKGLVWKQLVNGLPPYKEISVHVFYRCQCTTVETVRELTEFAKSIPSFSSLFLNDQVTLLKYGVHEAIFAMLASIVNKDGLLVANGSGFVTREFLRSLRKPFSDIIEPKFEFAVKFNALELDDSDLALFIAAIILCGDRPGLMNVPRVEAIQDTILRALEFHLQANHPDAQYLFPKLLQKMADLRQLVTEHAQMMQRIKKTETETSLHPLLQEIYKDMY
protocolSummary: Transient transfection transactivation assay in CV-1 cells, PPAR-delta (GAL4 chimera, luciferase reporter)
assayConditions: 20-24 hours
pEC50: −log10 of the molar value.

| compound | quantity | assayValue |
| --- | --- | --- |
| C[C@@H]1CN(C(=O)Cc2ccc(OC(F)(F)F)cc2)C[C@H](C)N1S(=O)(=O)c1cccc2c1CC(C(=O)O)C2 (some centres unmarked) | pEC50 | > 5.30 |
| C[C@@H]1CN(CC2(c3ccc(Cl)cc3)CC2)C[C@H](C)N1S(=O)(=O)c1cccc2c1CC(C(=O)O)C2 (some centres unmarked) | pEC50 | > 5.30 |
| C[C@@H]1CN(Cc2ccc(OC(F)(F)F)c(F)c2)C[C@H](C)N1S(=O)(=O)c1cccc2c1CC(C(=O)O)C2 (some centres unmarked) | pEC50 | > 5.30 |
| O=C(O)C1Cc2cccc(S(=O)(=O)N3CCN(CCc4ccc(C(F)(F)F)cc4)CC3)c2C1 (centres unmarked) | pEC50 | > 5.30 |
| O=C(O)C1Cc2cccc(S(=O)(=O)N3CCN(C(=O)Cc4ccc(OC(F)(F)F)cc4)CC3)c2C1 (centres unmarked) | pEC50 | 4.00 to 5.30 |

Please find the next compound below.
response.value for O=C(O)C1Cc2cccc(S(=O)(=O)N3CCN(C(=O)CCc4ccc(OC(F)(F)F)cc4)CC3)c2C1 (centres unmarked) (field: pEC50) = 4.00 to 5.30

These entries and their values trace back to patent US20070270434A1.
